Sourced from the RNAGym collection of RNA variant scans (doi:10.7554/elife.80360)

B1: Hairpin Ribozyme (parent)
chain: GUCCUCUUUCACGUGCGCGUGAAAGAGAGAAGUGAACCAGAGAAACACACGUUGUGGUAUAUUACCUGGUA

Variants of: B1
Assay: self-cleavage, relative activity (ratio to wild type); higher = more cleavage; co-transcriptional
Classification field: enter T for self-cleavage values not below 0.2, F for values below it.

Past entries and their recorded results:
> print(dat)
   mutant.code  qualitative.label
1    U60G U70G                  T
2    C12G A26G                  T
3    G25C U52C                  T

*Q* Does the reported self-cleavage for A41C G42U fall at or above the 0.2 mark?
*A* T

*Q* Does the reported self-cleavage for G15C U52A fall at or above the 0.2 mark?
*A* T

*Q* Does the reported self-cleavage for G13A G57A fall at or above the 0.2 mark?
*A* F

*Q* Does the reported self-cleavage for G25A G40C fall at or above the 0.2 mark?
*A* F

*Q* Does the reported self-cleavage for U2G A28U fall at or above the 0.2 mark?
*A* T

*Q* Does the reported self-cleavage for G51C A71C fall at or above the 0.2 mark?
*A* T

*Q* Does the reported self-cleavage for C10U A35G fall at or above the 0.2 mark?
*A* T
